For each entry below, report its NAC depletion (%) value.
- ASSAY_INFO: NAC depletion percent, HPLC-UV detection (281 nm)
- TEST_CONDITIONS: Reference (UV method); non-allergenic substance
The reply should be a number in %, with the unit left off.

Exercise: State the recorded NAC depletion (%) for this entry: CCCCCCCC(=O)O [Octanoic acid]
Key: 0.0

Exercise: State the recorded NAC depletion (%) for this entry: Clc1ccccc1 [Chlorobenzene]
Key: 0.0

Exercise: State the recorded NAC depletion (%) for this entry: COc1ccc(C(C)=O)cc1 [4′-Methoxyacetophenone]
Key: 3.3

Exercise: State the recorded NAC depletion (%) for this entry: C=C(C)C(=O)OCC(C)O (stereo not drawn) [2-Hydroxypropyl methacrylate]
Key: 2.4

Exercise: State the recorded NAC depletion (%) for this entry: CCCCBr [1-Bromobutane]
Key: 0.1

Exercise: State the recorded NAC depletion (%) for this entry: CCCCCCCCC(=O)O [Nonanoic acid]
Key: 0.0

Exercise: State the recorded NAC depletion (%) for this entry: COC(=O)c1ccc(O)cc1 [Methylparaben]
Key: 0.1

Exercise: State the recorded NAC depletion (%) for this entry: CC(O)CO (stereo not drawn) [Propylene glycol]
Key: 0.1

Exercise: State the recorded NAC depletion (%) for this entry: CCOC(=O)c1ccccc1C(=O)OCC [Diethyl phthalate]
Key: 0.0

Exercise: State the recorded NAC depletion (%) for this entry: O=c1ccc2ccccc2o1 [Coumarin]
Key: 0.5

Exercise: State the recorded NAC depletion (%) for this entry: CC(C)O [Isopropanol]
Key: 0.1

Exercise: State the recorded NAC depletion (%) for this entry: Cc1ccc2oc(=O)ccc2c1 [6-Methylcoumarin]
Key: 0.0

Exercise: State the recorded NAC depletion (%) for this entry: COc1cc(C=O)ccc1O [Vanillin]
Key: 1.5

Exercise: State the recorded NAC depletion (%) for this entry: O=C(O)c1ccc(O)cc1 [4-Hydroxybenzoic acid]
Key: 0.0

Exercise: State the recorded NAC depletion (%) for this entry: CC(O)C(=O)O (stereo not drawn) [Lactic acid]
Key: 0.0

Exercise: State the recorded NAC depletion (%) for this entry: Nc1ccc(S(N)(=O)=O)cc1 [Sulfanilamide]
Key: 0.0

Exercise: State the recorded NAC depletion (%) for this entry: Nc1ccc(S(=O)(=O)O)cc1 [Sulfanilic acid]
Key: 0.5

Exercise: State the recorded NAC depletion (%) for this entry: O=C(O)c1ccccc1O [Salicylic acid]
Key: 0.0

Recorded values, source patent US20210181109A1.
